- System: rat primary hepatocytes
- protocol: Metabolic disposition of [^14C]-Compound 1 and [^14C]-2′-C-methyl guanosine in rat primary hepatocytes (incubation medium, cellular extracts, nucleotide levels)
- Format: in vitro ADME, Sprague Dawley rat
- conditionContext: rat hepatocytes (Rs458), 1 μM [^14C]-Compound 1, 1 h
Listing: metabolites observed in cellular extracts (% of total radioactivity) of selected molecules
Please give a number only; it is taken to be in %.

>  <molecule>
C[C@@]1(O)[C@H](O)[C@@H](COP(=O)(O)OP(=O)(O)OP(=O)(O)O)O[C@H]1n1cnc2c(=O)[nH]c(N)nc21 [Compound 7]

>  <unitString>
%

>  <numericResult>
50.5

$$$$

Summary for this molecule, C[C@@]1(O)[C@H](O)[C@@H](COP(=O)(O)NCc2ccccc2)O[C@H]1n1cnc2c(=O)[nH]c(N)nc21 [Compound 2] : metabolites observed in cellular extracts (% of total radioactivity) is 5.83

// sample CC(C)(CO)C(=O)SCCOP(=O)(NCc1ccccc1)OC[C@H]1O[C@@H](n2cnc3c(=O)[nH]c(N)nc32)[C@](C)(O)[C@@H]1O (mixture of isomers) [Compound 1] , its metabolites observed in cellular extracts (% of total radioactivity) was 12.3

* * *

- System: rat primary hepatocytes
- protocol: Metabolic disposition of [^14C]-Compound 1 and [^14C]-2′-C-methyl guanosine in rat primary hepatocytes (incubation medium, cellular extracts, nucleotide levels)
- Type: in vitro ADME, Sprague Dawley rat
- conditionContext: rat hepatocytes Rs458; 10 μM [^14C]-2′-C-methyl guanosine; 4 h
# maps each entry to its Major metabolites observed in cellular extracts (% of total radioactivity)

Solved cases below.
>  <compound>
C[C@@]1(O)[C@H](O)[C@@H](COP(=O)(O)OP(=O)(O)O)O[C@H]1n1cnc2c(=O)[nH]c(N)nc21

>  <targetEntity>
rat primary hepatocytes

>  <result>
4.01 % of total radioactivity

$$$$
>  <compound>
C[C@@]1(O)[C@H](O)[C@@H](COP(=O)(O)OP(=O)(O)OP(=O)(O)O)O[C@H]1n1cnc2c(=O)[nH]c(N)nc21

>  <targetEntity>
rat primary hepatocytes

>  <result>
16.2 % of total radioactivity

$$$$

Would you kindly look at the next entry?
Please fill in: Major metabolites observed in cellular extracts (% of total radioactivity) reported for C[C@@]1(O)[C@H](O)[C@@H](CO)O[C@H]1n1cnc2c(=O)[nH]c(N)nc21 [2′-C-methyl guanosine, 9-(2-C-methyl-β-D-ribofuranosyl)guanine, reference compound] = 79.8 % of total radioactivity

* * *

- Tested on: Huh-7 cells
- protocol: Metabolic disposition of [^14C]-Compound 1 and [^14C]-2′-C-methyl guanosine in Huh-7 cells (incubation medium, cellular extracts, nucleotide levels)
- Type: in vitro ADME, human
- conditionContext: Huh7; 10 μM [^14C]-Compound 1; 72 h; second series
measuredMetric: Major metabolites observed in cellular extracts (% of total radioactivity)

>  <compound>
C[C@@]1(O)[C@H](O)[C@@H](COP(=O)(O)OP(=O)(O)OP(=O)(O)O)O[C@H]1n1cnc2c(=O)[nH]c(N)nc21 [Compound 7]

>  <result>
69.6 % of total radioactivity

$$$$

So for C[C@@]1(O)[C@H](O)[C@@H](COP(=O)(O)OP(=O)(O)O)O[C@H]1n1cnc2c(=O)[nH]c(N)nc21 [Compound 6] , the logged Major metabolites observed in cellular extracts (% of total radioactivity) turned out to be 8.44 % of total radioactivity

Lab book: Major metabolites observed in cellular extracts (% of total radioactivity) of C[C@@]1(O)[C@H](O)[C@@H](COP(=O)(O)O)O[C@H]1n1cnc2c(=O)[nH]c(N)nc21 [Compound 5] noted as 5.74 % of total radioactivity

Note to self: Major metabolites observed in cellular extracts (% of total radioactivity) recorded for CC(C)(CO)C(=O)SCCOP(=O)(NCc1ccccc1)OC[C@H]1O[C@@H](n2cnc3c(=O)[nH]c(N)nc32)[C@](C)(O)[C@@H]1O (mixture of isomers) [Compound 1] was 16.2 % of total radioactivity
